# methodSummary: Toxicity liver stage against HepG2, at 10uM
# Format: cell-based
# Set-up: test concentration 10 uM, cell line HepG2-A16-CD81EGFP
# conditionNotes: human, HepG2-A16-CD81EGFP cells; read-out: INHIBITION
Consider the following compounds and their measured cytotoxicity at 10 µM readings.
Numbers only; they are read as %.

Sample records with cytotoxicity at 10 µM:
{"columns": ["compound", "unitLabel", "cytotoxicity at 10 µM"],
 "data": [
  ["Fc1cccc(-n2nc(C3CC3)nc2CCn2cnnn2)c1", "%", -0.174],
  ["COC(=O)N1CCCCC1C(=O)N(C)Cc1cc(-c2cccnc2)no1 (configuration not stated)", "%", 0.83],
  ["Cc1nn(CC(=O)N2CCC(Nc3cccnn3)CC2)c(C)c1Cl", "%", -12]
]}

We next turn to a different compound, shown below.
-- ask For the compound "COc1ccc(CN2C[C@@H]3OCCN(C)[C@@H]3C2)cc1" , what cytotoxicity at 10 µM is on record?
-- reply -74.8

---

# methodSummary: Toxicity liver stage against HepG2, at 10uM
# Assay type: cell-based
# Design: test concentration 10 uM, cell line HepG2-A16-CD81EGFP
# conditionNotes: human, HepG2-A16-CD81EGFP cells; read-out: INHIBITION
valueKind: cytotoxicity at 10 µM (%)
Numbers only; they are read as %.

Sample records with cytotoxicity at 10 µM:
{"columns": ["compound", "cytotoxicity at 10 µM [%]"],
 "data": [
  ["CCc1cnc(N2C[C@H](OCc3csc(C)n3)[C@H]3COC[C@H]32)nc1", -2.51],
  ["CC(C)CN1CCC(C(=O)NCCNC(=O)c2ccccc2)CC1", 1.22]
]}

-- ask For the compound "Cc1nn(C)c2c(NCc3ccncc3)nc(C3CC3)nc12" , what cytotoxicity at 10 µM is on record?
-- reply -4.17

-- ask For the compound O=C(NCc1ccncc1)N1CCSCC1c1ccc(Cl)cc1 (centres undefined) , what cytotoxicity at 10 µM is on record?
-- reply 1.6

-- ask For the compound CC(Cn1ccnc1)NC(=O)NCCNC(=O)C(C)C (centres undefined) , what cytotoxicity at 10 µM is on record?
-- reply -3.51

-- ask For the compound "CS(=O)(=O)c1ccc(Cl)c(C(=O)NCCC2=CCCCC2)c1" , what cytotoxicity at 10 µM is on record?
-- reply 8.17

-- ask For the compound "CN(C)CCCn1ccnc1C1CCN(C(=O)Cc2cccnc2)CC1" , what cytotoxicity at 10 µM is on record?
-- reply 4.77

-- ask For the compound CC1COCCN1Cc1nc(-c2cccs2)no1 (centres undefined) , what cytotoxicity at 10 µM is on record?
-- reply -7.79

-- ask For the compound "O=C([C@H]1C[C@H]2OCC[C@H]2N(C(=O)c2ccncc2)C1)N1CCCC1" , what cytotoxicity at 10 µM is on record?
-- reply 4.76

-- ask For the compound CCc1noc(CN2CCCC2C(=O)OCc2ccccc2)n1 (centres undefined) , what cytotoxicity at 10 µM is on record?
-- reply -1.57

-- ask For the compound Cc1ccc(CC(NC(=O)CCS(C)(=O)=O)c2ccccn2)cc1 (centres undefined) , what cytotoxicity at 10 µM is on record?
-- reply -11

---

# methodSummary: Toxicity liver stage against HepG2, at 10uM
# Format: cell-based
# Parameters: test concentration 10 uM, cell line HepG2-A16-CD81EGFP
# conditionNotes: human, HepG2-A16-CD81EGFP cells; read-out: INHIBITION
Consider the following molecules and their measured cytotoxicity at 10 µM readings.
Numbers only; they are read as %.

{"columns": ["molecule", "cytotoxicity at 10 µM (%)"],
 "data": [
  ["Cc1n[nH]cc1CNC(C(=O)N1CCCCC1)c1ccccc1 (stereo not drawn)", 8.37],
  ["CCn1cnnc1C1CCN(C(=O)c2cc3c(s2)CCOC3)CC1", -6.37],
  ["O=C(O)c1cnc(N2CCC(O)CC2)nc1COc1ccc(F)cc1", -7.52],
  ["COCc1cc(CNC(=O)c2cccc3c2OCC3)n[nH]1", 8.97]
]}

-- ask For the molecule O=C(c1cccnc1O)N1CCCC2(C=Cc3ccccc3O2)CC1 (stereo not drawn) , what cytotoxicity at 10 µM is on record?
-- reply 9.02

-- ask For the molecule "Cc1ccnc(NC(=O)c2ccc(-n3ncc(C#N)c3N)cc2)c1" , what cytotoxicity at 10 µM is on record?
-- reply 1.22

-- ask For the molecule "CC(=O)NC[C@@H]1C=C(C)[C@H](CC(=O)NCCN(C)C)C[C@H]1C(C)C" , what cytotoxicity at 10 µM is on record?
-- reply 0.939

-- ask For the molecule "Cc1ccc(CN2C[C@@H]3[C@@H](C(=O)NCC(C)C)CCS(=O)(=O)[C@@H]3C2)cc1" , what cytotoxicity at 10 µM is on record?
-- reply 0.793

-- ask For the molecule NC(=O)C(NC(=O)Cc1cnn(-c2ccccc2)n1)c1ccccc1 (stereo not drawn) , what cytotoxicity at 10 µM is on record?
-- reply -3.05

-- ask For the molecule Cc1cc(N2CCC(N(C)Cc3cccnc3)C2=O)n(C)n1 (stereo not drawn) , what cytotoxicity at 10 µM is on record?
-- reply -9.98

-- ask For the molecule CCn1ncnc1CN1CCc2[nH]cnc2C1Cc1ccccc1 (stereo not drawn) , what cytotoxicity at 10 µM is on record?
-- reply -4.94

-- ask For the molecule "CCOc1ccc(C(=O)CCC(=O)N(C)Cc2nc(C)c[nH]2)cc1C" , what cytotoxicity at 10 µM is on record?
-- reply -5.45

-- ask For the molecule COCC(Nc1ncnc2sc(C(=O)O)c(C)c12)c1ccnn1C (stereo not drawn) , what cytotoxicity at 10 µM is on record?
-- reply -18.7

-- ask For the molecule "Cc1nccc(-c2cccc(NCC(=O)N3CCc4sccc4C3)c2)n1" , what cytotoxicity at 10 µM is on record?
-- reply 1.06

-- ask For the molecule "O=C(C1CCC1)N1CCN(Cc2ccc(F)cc2)[C@H]2CS(=O)(=O)C[C@H]21" , what cytotoxicity at 10 µM is on record?
-- reply 1.65

-- ask For the molecule "CCS(=O)(=O)N1CCc2cc(C(=O)NC)c(NCC3CC3)nc2CC1" , what cytotoxicity at 10 µM is on record?
-- reply 1.88

-- ask For the molecule "CCc1nnc2n1CCN(Cc1nc(-c3ccoc3)no1)C2" , what cytotoxicity at 10 µM is on record?
-- reply -4.1

---

# methodSummary: Toxicity liver stage against HepG2, at 10uM
# Type: cell-based
# Set-up: test concentration 10 uM, cell line HepG2-A16-CD81EGFP
# conditionNotes: human, HepG2-A16-CD81EGFP cells; read-out: INHIBITION
valueKind: cytotoxicity at 10 µM (%)
Numbers only; they are read as %.

Sample records with cytotoxicity at 10 µM:
{"columns": ["compound", "valueKind", "resultNumber"],
 "data": [
  ["Cc1oc(CN(C)C(=O)c2ccc(Br)cc2)cc1C(=O)O", "cytotoxicity at 10 µM", 5.5],
  ["CC(C)C1CN(S(=O)(=O)c2cccc(C#N)c2)CCS1 (centres undefined)", "cytotoxicity at 10 µM", 1.06],
  ["Cc1cc(=O)n2nc(Oc3ccc(C#N)cc3Cl)sc2n1", "cytotoxicity at 10 µM", 1.15],
  ["CN(Cc1ccc(-n2cccn2)cc1)CC1CCCN1c1cccnn1 (centres undefined)", "cytotoxicity at 10 µM", -3.98],
  ["O=C1CNc2ncnc(N3CCN(c4ccccc4F)CC3)c2N1", "cytotoxicity at 10 µM", 7.69],
  ["COc1ccc(CNC(Cc2cccs2)c2nc(C)c(C)s2)cc1OC (centres undefined)", "cytotoxicity at 10 µM", -3.32],
  ["CC(C)CN1CC(c2nc(C3CC3)n[nH]2)CC1=O (centres undefined)", "cytotoxicity at 10 µM", -1.64],
  ["Cc1ccc(C(=O)NCC(O)c2ccc(Cl)s2)c(=O)[nH]1 (centres undefined)", "cytotoxicity at 10 µM", -20.7],
  ["COCCCN1CCCC12CCN(Cc1cccnc1OC)CC2", "cytotoxicity at 10 µM", 11.8],
  ["CNc1cc2c(nn1)CCN(C(=O)c1ccc(-n3cccn3)nc1)C2", "cytotoxicity at 10 µM", -4.78]
]}

-- ask For the compound "Cc1ccc(S(=O)(=O)NC(=O)c2cc(S(C)(=O)=O)ccc2C)s1" , what cytotoxicity at 10 µM is on record?
-- reply 14.1

-- ask For the compound COCC(=O)N1CCCC1c1cc(Nc2nnc(C)s2)nc(C)n1 (centres undefined) , what cytotoxicity at 10 µM is on record?
-- reply -6.15

-- ask For the compound CN1CCOC(C(=O)Nc2ccc3c(c2)nc(C2CC2)n3C)C1 (centres undefined) , what cytotoxicity at 10 µM is on record?
-- reply -5.5

-- ask For the compound Cc1csc2ncn(C(C)Cc3cccnc3)c(=O)c12 (centres undefined) , what cytotoxicity at 10 µM is on record?
-- reply 6.9

-- ask For the compound CCOc1ccc(NC(=O)N2CCOC(C(N)=O)C2)cc1Cl (centres undefined) , what cytotoxicity at 10 µM is on record?
-- reply -140

-- ask For the compound "Cc1cc(C(=O)N2CCC3(CC2)CN(CCN(C)C)C(=O)O3)nc(C)n1" , what cytotoxicity at 10 µM is on record?
-- reply 2.92

-- ask For the compound "O=C(O)c1cccc2c(Br)cccc12" , what cytotoxicity at 10 µM is on record?
-- reply 3.38

-- ask For the compound "Cc1ccc2nc(CN(C)Cc3ccc(C)o3)cc(=O)n2c1" , what cytotoxicity at 10 µM is on record?
-- reply -3.02
